Quick list: solubility per entry.
# protocol_description: Kinetic solubility at pH 7.4
# Format: physicochemical
# condition_details: aqueous buffer, kinetic from dmso stock

The measured solubility associated with CC1(C)c2cccc(C(=O)NO)c2CN1c1nc2ccc(C(F)(F)F)cc2[nH]1 [Compound 17-1] reads 30 to 55 µM

The measured solubility associated with CC1(C)c2cccc(C(=O)NO)c2CN1c1nc2ncccc2o1 [Compound 18-2] reads > 55 µM

---

Quick list: solubility per entry.
# protocol_description: Kinetic solubility at pH 7.4
# Type: physicochemical
# condition_details: aqueous buffer, kinetic from dmso stock

smiles_code: CC1(C)c2cccc(C(=O)NO)c2CN1c1cnc(C(F)(F)F)nc1
solubility: > 55 µM
--
smiles_code: CC1(C)c2cccc(C(=O)NO)c2CN1c1ccc(C(F)(F)F)cn1
solubility: ≤ 30 µM

Moving on to the next molecule.
The measured solubility associated with "CC1(C)c2cccc(C(=O)NO)c2CN1c1cnc(C(F)(F)F)cn1" reads 30 to 55 µM
